Values compiled from ChEMBL document CHEMBL6134898.

Quick list: blood plasma ratio at 0.5 h, 10 µM per entry.
Assay: Blood to plasma partitioning ratio in rat at 10 uM incubated for 30 mins by LC-MS/MS analysis
Type: ADME, cell-free
Details: whole blood

{"COMPOUND": "CCc1cc(N2C(=S)N(c3ccc(C#N)c(C(F)(F)F)c3)C(=O)C2(C)C)ccc1OCCN1CCN(CC(=O)Nc2cccc(NC3CCC(=O)NC3=O)c2)[C@H](C)C1 (some centres undefined)", "blood plasma ratio at 0.5 h, 10 µM": 0.7}
{"COMPOUND": "CNC(=O)COc1cc2cc(Nc3nc(N4CCC(O[C@H]5C[C@H](N6CCC(c7ccc8c(c7F)CN(C7CCC(=O)NC7=O)C8=O)CC6)C5)CC4)ncc3Cl)ccc2n(C(C)C)c1=O (some centres undefined)", "blood plasma ratio at 0.5 h, 10 µM": 1.1}
{"COMPOUND": "COc1cc(-c2cn(C)c(=O)c3cnc(N4CCC4)cc23)cc(OC)c1CN1CCC(CN2CCC3(CC2)CN(c2ccc4c(c2)C(=O)N([C@H]2CCC(=O)NC2=O)C4)C3)CC1", "blood plasma ratio at 0.5 h, 10 µM": 1.3}
{"COMPOUND": "CN1CCN([C@@H]2CCCN(c3cnc(C(N)=O)c(Nc4ccc(C5CCN(CC6CCN(c7ccc(C(=O)N[C@H]8CCC(=O)NC8=O)nc7)CC6)CC5)cc4)n3)C2)C1=O", "blood plasma ratio at 0.5 h, 10 µM": 1.1}
